Assay: Cytotoxicity against HEL cells assessed as alteration in cell morphology after 3 days by microscopic method
Assay type: cell-based
Conditions: human
Quick reference: MCC at 72 h of the listed items.

Before answering, review these 6 worked examples.
> print(dat)
                                   compound     value
1  Nc1nc2c(ncn2COCCO)c(=O)[nH]1 [ACYCLOVIR]  > 250 µM
2             CCCCCCn1nnc2c1CCN(c1ccccc1)C2  > 100 µM
3          CCCCCCn1nnc2c1CCN(c1ccc(F)cc1)C2  > 100 µM
4  CCOC(=O)C1(Cc2ccccc2)CN(c2ccccc2)Cc2nnn(Cc3cccc(Cl)c3)c21 (centres undefined)  > 100 µM
5  CCOC(=O)C1(Cc2ccccc2)CN(c2ccccc2)Cc2nnn(Cc3ccc(Cl)cc3)c21 (centres undefined)  > 100 µM
6  Nc1nc2c(ncn2COC(CO)CO)c(=O)[nH]1 [GANCICLOVIR]  > 100 µM

Query block: Fill blank: measured MCC at 72 h of the compound CCOC(=O)C1(Cc2ccccc2)CN(c2ccccc2)Cc2nnn(Cc3ccc(OC)cc3)c21 (centres undefined) is ____.
Result block: > 100 µM

Query block: Again, but for CCOC(=O)C1(Cc2ccccc2)CN(c2ccccc2)Cc2nnn(Cc3ccco3)c21 (centres undefined)
Result block: 100 µM

Hello, the source for this data is ChEMBL document CHEMBL4265975, in case you need it.
